Collected pEC50 values appear next to each entry.
# Test system: HT-1080 cells
# ASSAY_REMARKS: HT-1080 cell viability assay (ferroptosis induced by RSL3, Cell Titer-Glo)
# Assay type: cell-based
# CONDITION_NOTES: Homo sapiens, HT-1080, 20 h, ferroptosis inducer RSL3, 20 hours, ferroptosis inhibitory activity, Table 2
pEC50: −log10 of the molar value.

Here are 2 compounds together with their reported answers.
>  <COMPOUND>
Cc1cc(NC[C@H]2CC[C@H](N)CC2)cc(C)c1C [Compound 314]

>  <pEC50>
7.00 to 10.00

$$$$
>  <COMPOUND>
CCCCc1ccc(NC2CCC(N)CC2)cc1 (centres unmarked) [Compound 137]

>  <pEC50>
7.00 to 10.00

$$$$

Fill blank: measured pEC50 of the compound CC1(C)CC(C)(C)c2cc(NC3CCC(N)CC3)ccc21 (centres unmarked) [Compound 325A] is ____.
7.00 to 10.00

Form field: reported pEC50 of CC1CN(c2ccc(NC3C4CC5CC3CC(CN)(C5)C4)cc2)CC(C)O1 (centres unmarked) [Compound 426]
7.00 to 10.00

// query pEC50 value for entry CC1(C)CCC(c2ccc(NC3CCC(CCN)CC3)cc2)CC1 (centres unmarked) [Compound 118]
7.00 to 10.00

I am curious: what pEC50 value has been reported for CCCc1ccc(NC2CCC(CCN)CC2)cc1 (centres unmarked) [Compound 292] ?
7.00 to 10.00
